Reference source: the supplement of paper PMC6555819

system: RXRa DBDmut IVT, anti-RXR (DBD mutation: RXRa K156A/R161A, NR concentration 90 nM); assay: PBM binding z-score (relative to random genomic background probes); higher = stronger binding; sequences stand for … in GC…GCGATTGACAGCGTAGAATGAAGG
Below, each of the sequences is paired with its reported PBM binding z-score value.
I only need the number, thanks.

In [3]: df
Out[3]:
                      residuesequence  observedmeasurement
0  CCTACTGGGCCATTAGGTCATTGATATCAACGTT                0.292
1  AACACAGGGTCATCGTAGGCCAGAGTACGCACAG                 3.79
2  ATCTCTAGGTAAGACTCAGTGCAGTGAAGAACGC             -0.00244
3  CCTATTAGCTGACCATAAGGGCAACCGAAGCTCG                0.637

Q: Need PBM binding z-score, item `ATCTCTAGGTAAAGATAGTTCAGTGAATGCAAAT`
Ans: -0.0413

Q: Can you check `GATGCAGGGTCAAGGCCAGAGTACGCGTATTGAT` next?
Ans: 1.98

Q: # iterate: `CCTTACGGGTCACTGACAGGTTATACCATTTGGA`
Ans: 1.64

Q: Check `CGAACTAGGTCAAGGATAGTGAATCTCCGCACGC` too.
Ans: 1.47

Q: Another sequence: `TTACCAAGGTGAAAGGTCGTTAATGCACGCCTTG`
Ans: 0.25

Q: Could you do the same for `CCTCGGAGGACAACAGGAGGTCACAGCTGCCAGA` , please?
Ans: 0.736

Q: Moving on to the next sequence: `CAAACTAGGTCACGAAAGGTCAAACTCGAATGAC`
Ans: 2.91

Q: Moving on to `ATATGTAGGTTAGCTTGGGTCATTCAGACTAGGC`
Ans: 0.678

Q: Next sequence: `ACTATTAGTTGAAACGAGGGCAACCGATAGGTTG`
Ans: 0.84

Q: Let us now turn to `CGTCAAAGTTCTACTAAGGTAACGTAAAGCACGC`
Ans: 0.53

Q: Item: `TCTAGGAGGCCAGAGGGTCACTCAAGAGGTACGG`
Ans: 0.451
